system: CYP2B6; assay: CLZD_CYP2B6: Change in expression of CYP2B6 (primary human hepatocytes); format: cell-based; details: 24 hr
Quick reference: CLZD_CYP2B6_24 of the listed items.
Please state the value as a number alone, without comment.

Clc1cccc(C(Cl)(Cl)Cl)n1 : 5.088
CCOC(=O)COc1cc(-c2nn(C)c(OC(F)F)c2Cl)c(F)cc1Cl : 4.918
CC(C)=CC1C(C(=O)OCc2coc(Cc3ccccc3)c2)C1(C)C (centres unmarked) : 5.057
CCCN(CCC)c1c([N+](=O)[O-])cc(C(F)(F)F)c(N)c1[N+](=O)[O-] : 5.057

Turning now to a further molecule:
For the molecule "C#CC(C)(C)NC(=O)c1cc(Cl)cc(Cl)c1" , give its reported CLZD_CYP2B6_24.
5.253

====

system: PPAR; assay: Aggregate nuclear receptor activity: PPAR; conditions: aggregate human NR activity, in words
quantity-kind: activity with PPAR

These solved cases illustrate the format of a correct answer.
COC(=O)C(C)Oc1ccc(Oc2ccc(Cl)cc2Cl)cc1 (stereo not shown) : most consistently active
CCOC(=O)CC(SP(=S)(OC)OC)C(=O)OCC (stereo not shown) : most consistently active
CC(C)Oc1cc(-n2nc(C(C)(C)C)oc2=O)c(Cl)cc1Cl : less frequently
CCOC(=O)C(C)OC(=O)c1cc(Oc2ccc(C(F)(F)F)cc2Cl)ccc1[N+](=O)[O-] (stereo not shown) : less frequently
C=CCOC(Cn1ccnc1)c1ccc(Cl)cc1Cl (stereo not shown) : most consistently active
N#Cc1c[nH]cc1-c1cccc2c1OC(F)(F)O2 : less frequently

For the compound C=CC1(C)OC(=O)N(c2cc(Cl)cc(Cl)c2)C1=O (stereo not shown) , give its reported activity with PPAR.
most consistently active

====

Quick reference: CLZD_CYP1A2_24 of the listed items.
test system: CYP1A2; experiment: CLZD_CYP1A2: Change in expression of CYP1A2 (primary human hepatocytes); assay type: cell-based; settings: 24 hr

These solved cases illustrate the format of a correct answer.
CCCCC(C#N)(Cn1cncn1)c1ccc(Cl)cc1 (centres unmarked) : 5.223
CC(C)Nc1nc(Cl)nc(NC(C)C)n1 : 5.254

For the compound "CSc1nc(NC(C)C)nc(NC(C)C)n1" , give its reported CLZD_CYP1A2_24.
5.251

For the compound "CC(C)Oc1cc(-n2nc(C(C)(C)C)oc2=O)c(Cl)cc1Cl" , give its reported CLZD_CYP1A2_24.
5.223

For the compound "Fc1ccc(Oc2ccnc3cc(Cl)cc(Cl)c23)cc1" , give its reported CLZD_CYP1A2_24.
5.172

For the compound "S=C([S-])NCCNC(=S)[S-].[Zn+2]" , give its reported CLZD_CYP1A2_24.
5.296

For the compound CCN(CC)C(=O)C(C)Oc1cccc2ccccc12 (centres unmarked) , give its reported CLZD_CYP1A2_24.
5.174

====

molecular target: CAR (NR1I3) (Homo sapiens, UniProt Q14994); assay: NVS_NR_hCAR_Agonist: Human CAR CITCO Agonist (cell-free HTS); format: biochemical; settings: scale not given, looks like -log10 of molar active concentration, 0 = no activity
Sequence (Q14994 whole entry): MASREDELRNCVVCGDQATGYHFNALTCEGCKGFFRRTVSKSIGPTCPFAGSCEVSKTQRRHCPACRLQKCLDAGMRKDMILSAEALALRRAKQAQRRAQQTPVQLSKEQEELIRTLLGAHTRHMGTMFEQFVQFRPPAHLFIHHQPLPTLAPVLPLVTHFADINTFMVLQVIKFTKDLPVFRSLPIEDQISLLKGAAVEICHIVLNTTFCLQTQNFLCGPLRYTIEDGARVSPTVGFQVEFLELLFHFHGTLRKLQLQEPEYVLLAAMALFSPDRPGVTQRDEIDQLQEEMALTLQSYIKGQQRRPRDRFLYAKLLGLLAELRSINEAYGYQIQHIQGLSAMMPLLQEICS
Quick reference: NVS_NR_hCAR_Agonist of the listed items.
Please state the value as a number alone, without comment.

CCSC(=O)N(CC(C)C)CC(C)C [r49] : 0
CCOC(=O)C(Cl)Cc1cc(-n2nc(C)n(C(F)F)c2=O)c(F)cc1Cl (centres unmarked) [r54] : 0
C=CCOC(=O)C(C)(C)OC(=O)c1cc(-n2c(=O)cc(C(F)(F)F)n(C)c2=O)ccc1Cl [r47] : 0
COc1ccc(-c2ccccc2)cc1NNC(=O)OC(C)C [r38] : 0

For the molecule Cc1ccccc1CO[C@@H]1C[C@@]2(C(C)C)CC[C@]1(C)O2 [r64] , give its reported NVS_NR_hCAR_Agonist.
0

For the molecule COc1nc(C)nc(NC(=O)NS(=O)(=O)c2ccccc2Cl)n1 [r62] , give its reported NVS_NR_hCAR_Agonist.
0

For the molecule N#Cc1c(Cl)c(Cl)c(Cl)c(C#N)c1Cl [r58] , give its reported NVS_NR_hCAR_Agonist.
0

For the molecule CC(C)N1C(=O)N(c2ccccc2)CS/C1=N\C(C)(C)C [r45] , give its reported NVS_NR_hCAR_Agonist.
0
